METHOD SUMMARY: chemical genetic growth profiling, strain panel (AID 1159580);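 further: tested at 20 µM; growth read once vehicle control cultures reached saturation at 30 °C; 1 = growth at the plate median or of vehicle wells; lower values mean less growth of the strain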
CONDITION SUMMARY: S. cerevisiae deletion strains, growth OD, locus YOR316C, strain cot1, hits give low values
Screen size: about 5,500 compounds; about 2,000 (36%) were called active. Not shown: some 18% with an inconclusive outcome. The list shows a part of the results.
EXPERIMENTAL READOUT: normalized growth

COMPOUND	EXPERIMENTAL READOUT	READOUT VALUE
c1ccc2[nH]c(-c3cscn3)nc2c1	normalized growth	0.998
O=C(O)CCCCCCCCCCCCC1C=CCC1 (stereo not given)	normalized growth	0.999
CC(=O)O[C@H]1CC[C@@]2(C)C(=CCC3C2CC[C@@]2(C)C3CC[C@@H]2C(C)CCCC(C)C)C1 (stereo not given in full)	normalized growth	1.02
CC(Cc1ccc(O)c(O)c1)(NN)C(=O)O (stereo not given)	normalized growth	1.01
NC(=O)c1cc[n+](CC2=C(C(=O)O)N3C(=O)C(NC(=O)C(c4ccccc4)S(=O)(=O)[O-])C3SC2)cc1 (stereo not given)	normalized growth	0.994
COc1ccc(/C=C/c2cc(O)cc(O[C@@H]3O[C@H](CO)[C@@H](O)[C@H](O)[C@H]3O)c2)cc1O	normalized growth	1.02
CC[C@@]1(C2O[C@@H](C3O[C@@](O)(CC)[C@H](C)C[C@@H]3C)C[C@@H]2C)CC[C@H]([C@]2(C)CCC3(C[C@H](O)[C@@H](C)[C@@H]([C@H](C)[C@@H](OC)[C@H](C)C(=O)O)O3)O2)O1 (stereo not given in full)	normalized growth	1.01
CC(=O)O[C@H]1C[C@@H](OC(C)=O)C(C)(C)C2C[C@@H](OC(C)=O)[C@]3(C)C(CC[C@@]4(C)[C@H](c5ccoc5)C(=O)[C@H]5O[C@]543)[C@]21C (stereo not given in full)	normalized growth	1.02
Cc1ccc(C(C)C)cc2c(C)ccc1-2	normalized growth	1.02
CC(=O)O[C@H]1CC[C@@]2(C)C(=CCC3C2CC[C@]2(C)C(=O)CCC32)C1 (stereo not given in full)	normalized growth	1.02
O=C1O[C@@H](CO)[C@H](O)[C@@H](O)[C@@H]1O	normalized growth	1.01
CC(C)C1=CC2=CCC3[C@](C)(CCC[C@]3(C)C(=O)O)C2CC1 (stereo not given in full)	normalized growth	0.979
Oc1cc(O)cc(/C=C/c2ccccc2)c1	normalized growth	0.984
CC12CCC(CC1)C(C)(C)O2	normalized growth	1.02
O=C(O)CCCCC1SCC2NC(=O)NC21 (stereo not given)	normalized growth	1

###

# normalized growth annotations
METHOD SUMMARY: chemical genetic growth profiling, strain panel (AID 1159580);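 further: tested at 20 µM; growth read once vehicle control cultures reached saturation at 30 °C; 1 = growth at the plate median or of vehicle wells; lower values mean less growth of the strain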
CONDITION SUMMARY: S. cerevisiae deletion strains, growth OD, locus YDL101C, strain DUN1, hits give low values
The whole screen tested about 5,500 compounds, of which about 2,000 (36%) were called active. Another 18% or so got no clear call; they are omitted. The list shows a part of the results.
EXPERIMENTAL READOUT: normalized growth

MOLECULE	READOUT VALUE
O=C(O)c1cc(=O)c(O)c2c(O)c(O)ccc2c1	1.01
CN1c2ccccc2C(=O)NC1c1cc(Br)cs1 (stereo unspecified)	0.996
N=C(N)SCc1nc(-c2ccc(Cl)cc2)no1	0.99
CCOC(=O)c1c(-c2ccc(F)cc2)csc1N	0.986
CCOP(=S)(OCC)SCSCC	1
CCOC(=O)c1c(C)csc1N	0.998
ON(Cc1c(F)cccc1Cl)Cc1c(F)cccc1Cl	0.978
CCOP(=S)(OCC)Oc1ccc2c(C)c(Cl)c(=O)oc2c1	0.975
Clc1ccc(-c2noc(CSC3=NCCN3)n2)cc1	0.989
Fc1cccc(Cl)c1Cn1nnc(N2CCCCC2)n1	0.992
C=CCc1cc(OC)c2c(c1OC)OCO2	0.995
CC[C@@]1(C2O[C@@H](C3O[C@@](O)(CC)[C@H](C)C[C@@H]3C)C[C@@H]2C)CC[C@H]([C@]2(C)CCC3(C[C@H](O)[C@@H](C)[C@@H]([C@H](C)[C@@H](OC)[C@H](C)C(=O)O)O3)O2)O1 (stereo partly specified)	0.99
CC1=C(/C=C/C(C)=C/C=C/C(C)=C/C(=O)O)C(C)(C)CCC1	1.01
CN(Cc1cc(Br)cc(Br)c1N)C1CCCCC1	0.999
CCCC1c2ccsc2CCN1C(=S)Nc1ccc(Cl)cc1Cl (stereo unspecified)	0.984
NCCCCN=C(N)N	0.998
O=C(O)CCCCC1SCC2NC(=O)NC21 (stereo unspecified)	0.989
OC/C=C/c1ccc(O)c(O)c1	0.991
COc1ccccc1N1CCN(Cc2ccc(F)cc2)CC1	0.992
Nc1c(Br)cc(Br)cc1CNC1CCC(O)CC1 (stereo unspecified)	1.02
CC1=C(/C=C/C(C)=C/C=C/C(C)=C\C(=O)O)C(C)(C)CCC1	1.01
